- assay.target: T1, Rhesus monkey glycophorin A on Rhesus monkey red blood cells (Rhesus monkey, UniProt A0A1D5Q349 20-150)
- T1 construct: whole, on cells; also called Rhesus RBC; monkey GPA
- T1 sequence: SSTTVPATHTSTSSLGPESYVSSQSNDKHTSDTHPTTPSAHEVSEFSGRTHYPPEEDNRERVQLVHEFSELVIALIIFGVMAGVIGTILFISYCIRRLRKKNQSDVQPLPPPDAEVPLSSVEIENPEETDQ
- assay.info: FACS, RBC Rh02
For each entry below, report its fluorescence intensity value.
Give the figure only, with no unit attached.

In: Name the recorded fluorescence intensity for Hu6C12-13 (antibody, V domains shown, IgG format; VH.1d + Vk.1a) VH: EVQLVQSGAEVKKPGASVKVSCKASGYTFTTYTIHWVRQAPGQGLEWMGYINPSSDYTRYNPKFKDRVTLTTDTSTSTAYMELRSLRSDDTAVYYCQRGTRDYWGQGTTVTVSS VL: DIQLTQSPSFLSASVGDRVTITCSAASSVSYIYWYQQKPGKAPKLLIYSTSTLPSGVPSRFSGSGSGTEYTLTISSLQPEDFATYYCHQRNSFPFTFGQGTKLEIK .
Out: 1280

In: Endpoint output: fluorescence intensity of Hu6C12-9 (antibody, V domains shown, IgG format; VH.1 + Vk.1a) VH: EVQLVQSGAEVKKPGASVKVSCKASGYTFTTYTIHWVRQAPGQGLEWMGYINPSSDYTRYNPKFKDRVTMTTDTSTSTAYMELRSLRSDDTAVYYCARGTRDYWGQGTTVTVSS VL: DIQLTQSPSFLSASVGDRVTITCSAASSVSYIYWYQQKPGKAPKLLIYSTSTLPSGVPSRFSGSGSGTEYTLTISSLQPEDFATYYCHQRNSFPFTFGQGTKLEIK . Value?
Out: 1060

In: So what does the record say about fluorescence intensity for Hu6C12-5 (antibody, V domains shown, IgG format; VH.1e + Vk.1) VH: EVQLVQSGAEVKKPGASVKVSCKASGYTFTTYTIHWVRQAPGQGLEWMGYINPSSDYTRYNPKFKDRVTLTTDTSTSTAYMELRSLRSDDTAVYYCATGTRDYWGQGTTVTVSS VL: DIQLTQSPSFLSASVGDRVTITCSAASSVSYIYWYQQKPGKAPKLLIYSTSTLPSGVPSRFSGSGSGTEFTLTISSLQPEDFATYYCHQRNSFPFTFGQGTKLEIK ?
Out: 1550
